Biological target: T1, human CD4 on the surface of SKW3 cells or human PBMCs (human, UniProt P01730 26-458)
T1 construct: whole, on cells; SKW3 CD4 knockout cells served as the negative cell line; also called hCD4; SKW3 WT
Assay: FACS confirmation, supernatant on human PBMCs, anti-mouse Fc A647
valueType: PBMCs, anti-mFc 647 CD4+ Percent Bound of Viable (%)
Output spec: scalar in %, unitless text.

>>> numericvalue("75110_12H19A (antibody, V domains shown, Tested here as non-clonal hybridoma supernatant from AlivaMab Mouse Kappa mice (detected with anti-mouse Fc and anti-human kappa)) VH: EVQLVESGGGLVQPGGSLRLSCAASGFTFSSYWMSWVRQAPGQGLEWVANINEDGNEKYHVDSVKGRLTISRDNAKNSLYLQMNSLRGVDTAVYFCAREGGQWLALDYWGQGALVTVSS VL: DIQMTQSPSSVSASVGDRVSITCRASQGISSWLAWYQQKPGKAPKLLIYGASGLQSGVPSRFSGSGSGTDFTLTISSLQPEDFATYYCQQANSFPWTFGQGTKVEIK")
27
>>> numericvalue("75110_09N20A (antibody, V domains shown, Tested here as non-clonal hybridoma supernatant from AlivaMab Mouse Kappa mice (detected with anti-mouse Fc and anti-human kappa)) VH: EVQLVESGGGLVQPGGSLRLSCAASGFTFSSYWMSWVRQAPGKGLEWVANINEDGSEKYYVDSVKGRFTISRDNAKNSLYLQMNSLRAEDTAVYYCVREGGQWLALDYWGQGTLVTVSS VL: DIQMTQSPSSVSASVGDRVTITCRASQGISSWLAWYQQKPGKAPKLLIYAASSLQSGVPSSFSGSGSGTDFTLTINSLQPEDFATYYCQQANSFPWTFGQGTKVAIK")
33
>>> numericvalue("75110_04K10A (antibody, V domains shown, Tested here as non-clonal hybridoma supernatant from AlivaMab Mouse Kappa mice (detected with anti-mouse Fc and anti-human kappa)) VH: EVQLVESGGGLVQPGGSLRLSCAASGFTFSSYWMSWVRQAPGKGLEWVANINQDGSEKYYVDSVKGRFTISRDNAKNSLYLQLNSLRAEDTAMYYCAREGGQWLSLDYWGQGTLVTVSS VL: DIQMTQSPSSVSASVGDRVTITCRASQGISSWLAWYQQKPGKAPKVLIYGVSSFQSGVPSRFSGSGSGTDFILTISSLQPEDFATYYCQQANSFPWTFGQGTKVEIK")
33

Exercise: Reported PBMCs, anti-mFc 647 CD4+ Percent Bound of Viable for 75110_11D03A (antibody, V domains shown, Tested here as non-clonal hybridoma supernatant from AlivaMab Mouse Kappa mice (detected with anti-mouse Fc and anti-human kappa)) VH: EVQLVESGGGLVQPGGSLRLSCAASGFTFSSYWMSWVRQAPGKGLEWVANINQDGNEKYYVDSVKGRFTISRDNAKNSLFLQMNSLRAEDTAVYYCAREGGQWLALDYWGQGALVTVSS VL: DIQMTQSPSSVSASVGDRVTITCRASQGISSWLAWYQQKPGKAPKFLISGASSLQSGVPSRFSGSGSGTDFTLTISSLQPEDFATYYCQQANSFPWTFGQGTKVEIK : what is it?
Key: 29

Exercise: Reported PBMCs, anti-mFc 647 CD4+ Percent Bound of Viable for 75110_01J09A (antibody, V domains shown, Tested here as non-clonal hybridoma supernatant from AlivaMab Mouse Kappa mice (detected with anti-mouse Fc and anti-human kappa)) VH: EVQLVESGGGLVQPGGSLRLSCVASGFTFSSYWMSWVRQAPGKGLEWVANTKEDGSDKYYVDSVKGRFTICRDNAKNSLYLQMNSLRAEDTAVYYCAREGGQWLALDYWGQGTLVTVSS VL: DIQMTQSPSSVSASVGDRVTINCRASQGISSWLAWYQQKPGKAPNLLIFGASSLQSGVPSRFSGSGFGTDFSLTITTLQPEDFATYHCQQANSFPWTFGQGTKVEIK : what is it?
Key: 31
